- measuredTarget: Cytochrome P450 11B2, mitochondrial (Homo sapiens, UniProt P19099)
- Sequence (P19099 whole entry): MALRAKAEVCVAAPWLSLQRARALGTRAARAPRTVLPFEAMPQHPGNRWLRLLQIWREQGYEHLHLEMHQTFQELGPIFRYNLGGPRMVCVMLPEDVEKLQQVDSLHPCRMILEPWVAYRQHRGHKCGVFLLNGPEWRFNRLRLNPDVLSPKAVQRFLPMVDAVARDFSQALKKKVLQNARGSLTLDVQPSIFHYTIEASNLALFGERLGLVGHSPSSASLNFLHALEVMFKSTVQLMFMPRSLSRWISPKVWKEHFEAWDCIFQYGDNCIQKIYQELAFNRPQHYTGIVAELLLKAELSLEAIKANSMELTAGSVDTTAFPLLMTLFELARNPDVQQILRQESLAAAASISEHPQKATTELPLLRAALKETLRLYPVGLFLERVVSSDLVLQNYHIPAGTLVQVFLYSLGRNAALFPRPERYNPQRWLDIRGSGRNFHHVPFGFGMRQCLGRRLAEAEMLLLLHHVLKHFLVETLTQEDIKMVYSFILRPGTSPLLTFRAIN
- experiment: Inhibition of human CYP11B2 expressed in V79 cells incubated for 1 hr before 11-deoxycorticosterone substrate addition by HTRF-based assay
Recorded pIC50, one value per entry.
A value of pIC50 is the negative decimal logarithm of a concentration given in moles per litre.

Q: Given `Clc1ccc2nc(-c3cccnc3)n(C3CC3)c2c1` , report its pIC50 on Cytochrome P450 11B2, mitochondrial (Homo sapiens, UniProt P19099).
Ans: 8.66

Q: Specify the recorded pIC50 for `Cc1cncc(-c2nc3cc(F)c(F)cc3n2C2CC2)c1C` , system: Cytochrome P450 11B2, mitochondrial (Homo sapiens, UniProt P19099).
Ans: 9.70

Q: Please indicate recorded pIC50 of `Cc1c(F)cncc1-c1nc2cc(F)c(F)cc2n1C1CC1` measured with Cytochrome P450 11B2, mitochondrial (Homo sapiens, UniProt P19099).
Ans: 9.30

Q: Check Cytochrome P450 11B2, mitochondrial (Homo sapiens, UniProt P19099) data and give pIC50 for `COc1cncc(-c2nc3cc(F)c(F)cc3n2C2CC2)c1` .
Ans: 9.40

Q: Identify measured pIC50 obtained with Cytochrome P450 11B2, mitochondrial (Homo sapiens, UniProt P19099) for `CCn1c(-c2cccnc2)nc2ccc(F)cc21` .
Ans: 7.46

Q: Fill in: pIC50 on Cytochrome P450 11B2, mitochondrial (Homo sapiens, UniProt P19099), entry `N#Cc1ccc2c(c1)nc(-c1cccnc1)n2C1CC1`
Ans: 5.75

Q: Quote Cytochrome P450 11B2, mitochondrial (Homo sapiens, UniProt P19099) pIC50 for entry `CC(C)n1c(-c2cccnc2)nc2ccc(F)cc21` .
Ans: 6.86

Q: Under Cytochrome P450 11B2, mitochondrial (Homo sapiens, UniProt P19099), report pIC50 for `COc1c(C)cncc1-c1nc2cc(F)c(F)cc2n1C1CC1`
Ans: 9.22

Q: Report pIC50 on Cytochrome P450 11B2, mitochondrial (Homo sapiens, UniProt P19099) for this entry: `Fc1cc2nc(-c3cccnc3)n(C3CC3)c2cc1F`
Ans: 8.68

Q: Specify pIC50 for `Fc1cc2nc(-c3cccnc3)n(C3CC3)c2cc1Cl` , system Cytochrome P450 11B2, mitochondrial (Homo sapiens, UniProt P19099).
Ans: 9.40
